biological target: Serine/threonine-protein kinase 10 (Homo sapiens); conditions: at 10 µM
Label 0 (no) if residual activity falls below 60%; label 1 (yes) in every other case.

> print(dat)
                                 mol.smiles  category.label
1  O=[N+]([O-])c1ccc(-c2nc(-c3ccc(F)cc3)c(-c3ccncc3)[nH]2)cc1         1 (yes)
2  CC(=O)O/N=C1\C(=C2\C(=O)Nc3cc(Br)ccc32)Nc2ccccc21          0 (no)
3   Cc1cc(Nc2nc(-c3ccccc3)nc3ccccc23)n[nH]1          0 (no)
4  CCN(CC)C(=O)c1ccc(Nc2nc(OCC3CCCCC3)c3nc[nH]c3n2)cc1          0 (no)
5           Ic1cccc(CSc2nnc(-c3ccncc3)o2)c1         1 (yes)
6         COc1ccc(OC)c2c(=S)c3ccccc3[nH]c12         1 (yes)

Taken from ChEMBL document CHEMBL2218924.
